Numbers sourced from patent US8815857B2.

# Method Description: Assessment of solubility: HT solubility in pION buffer, UV spectrophotometry
# Setup Conditions: pH 6.8, aqueous buffer, kinetic from dmso stock, Solubility (pH 6.8), pH 6.8
Quantity Kind: log10 of solubility (log10 of the value in µg/mL)

{"Compound": "Cc1ccc(OCc2ccc(CN3CCOCC3)cc2C)c(-c2csc(N3CC4(CC4C(=O)O)C3)n2)c1 (stereo not shown)", "log10 of solubility": 1.65}
{"Compound": "Cc1ccc(OCc2ccc(C(=O)N3CCC[C@@H](O)C3)cc2C)c(-c2csc(N3C[C@H]4CC[C@@H](C3)[C@H]4C(=O)O)n2)c1", "log10 of solubility": 1.11}
{"Compound": "COC1CCCN(C(=O)c2ccc(COc3ccc(C)cc3-c3csc(N4C[C@H]5CC[C@@H](C4)[C@H]5C(=O)O)n3)c(C)c2)C1 (stereo partly shown)", "log10 of solubility": 1.62}
{"Compound": "Cc1ccc(OCc2ccc(C(=O)N3C[C@H]4CC[C@@H](C3)O4)cc2C)c(-c2csc(N3C[C@H]4CC[C@@H](C3)[C@H]4C(=O)O)n2)c1", "log10 of solubility": -0.59}
{"Compound": "Cc1ccc(OCc2ccc(CN3CCOCC3)cc2C#N)c(-c2csc(N3C[C@H]4CC[C@@H](C3)[C@H]4C(=O)O)n2)c1", "log10 of solubility": 1.08}
{"Compound": "CCCC1(C(=O)O)C2CCC1CN(c1nc(-c3cc(C)ccc3OCc3ccc(C(=O)N4CCCCC4)cc3C)cs1)C2 (stereo not shown)", "log10 of solubility": 1.08}
{"Compound": "Cc1ccc(OCc2ccc(C(=O)N3CCOCC3)cc2C)c(-c2csc(N3CC[C@@]4(C(=O)O)C[C@H]4C3)n2)c1", "log10 of solubility": 1.73}
{"Compound": "CCN(CCO)C(=O)c1ccc(COc2ccc(C)cc2-c2csc(N3C[C@H]4CC[C@@H](C3)[C@H]4C(=O)O)n2)c(C)c1", "log10 of solubility": 1.82}
{"Compound": "Cc1ccc(OCc2ccc(CN3C[C@@H]4C[C@H]3CO4)cc2C#N)c(-c2csc(N3C[C@H]4CC[C@@H](C3)[C@H]4C(=O)O)n2)c1", "log10 of solubility": 1.41}
{"Compound": "Cc1ccc(OCc2ccc(C(=O)N(C)CCC#N)cc2C)c(-c2csc(N3C[C@H]4CC[C@@H](C3)[C@H]4C(=O)O)n2)c1", "log10 of solubility": 1.00}
{"Compound": "Cc1ccc(OCc2ccc(C(=O)N3CCCCC3)cc2C)c(-c2csc(N3C[C@@H]4[C@H](C3)[C@@H]4C(=O)O)n2)c1", "log10 of solubility": 1.79}
{"Compound": "CCc1cc(C(=O)N2CCOCC2)ccc1COc1ccc(C)cc1-c1csc(N2C[C@H]3CC[C@@H](C2)[C@H]3C(=O)O)n1", "log10 of solubility": 1.46}
{"Compound": "Cc1ccc(OCc2c(C)cc(C(=O)N3CCCCC3)cc2C)c(-c2csc(N3C[C@H]4CC[C@@H](C3)[C@H]4C(=O)O)n2)c1", "log10 of solubility": -0.05}

====

Parameter solubility: see the listing below.
# Method Description: Assessment of solubility: HT solubility in pION buffer, UV spectrophotometry
# Setup Conditions: pION system solution buffer, pH 7.4, pH 7.4, aqueous buffer, kinetic from dmso stock, Solubility (pH 7.4), pH 7.4 buffer, 16-19 h incubation, 1.0% DMSO

{"Compound": "Cc1cc(CN2CCS(=O)(=O)CC2)ccc1COc1ccc(F)cc1-c1csc(N2C3CCC2CC(C(=O)O)C3)n1 (stereo not shown)", "solubility": "> 59 µg/mL"}
{"Compound": "Cc1ccc(OCc2ccc(C(=O)N3CCCC3)cc2C#N)c(-c2csc(N3CCC(C(=O)O)CC3)n2)c1", "solubility": "> 53 µg/mL"}
{"Compound": "Cc1cc(CN(C)C2CCS(=O)(=O)C2)ccc1COc1c(C)cccc1-c1csc(N2CCC(C(=O)O)CC2)n1 (stereo not shown)", "solubility": "> 58 µg/mL"}
{"Compound": "Cc1ccc(OCc2ccc(CN3CCOCC3)cc2C)c(-c2csc(N3CCC[C@@H](C(=O)O)C3)n2)c1", "solubility": "> 52 µg/mL"}
{"Compound": "Cc1cc(CN2CCOCC2)ccc1COc1ccc(C#N)cc1-c1csc(N2CC3C(C2)C3C(=O)O)n1 (stereo not shown)", "solubility": "> 60 µg/mL"}
{"Compound": "Cc1cc(CN2CCS(=O)(=O)CC2)ccc1COc1ccccc1-c1csc(N2CCC(C(=O)O)C(C)C2)n1 (stereo not shown)", "solubility": "> 56 µg/mL"}
{"Compound": "Cc1ccc(OCc2ccc(C(=O)N3CCOCC3)cc2C)c(-c2csc(N3CCC(C(=O)O)CC3)n2)c1", "solubility": "> 53 µg/mL"}

====

# Tested On: Recombinant human soluble guanylate cyclase (sGC), alpha 1 / beta 1 subunits, heme-free (Homo sapiens, UniProt Q02108+Q02153)
# Construct: histidine tag (C); made in house; host or cells: Sf9 insect cells (baculovirus coinfection)
# Sequence (Q02108 whole entry partner): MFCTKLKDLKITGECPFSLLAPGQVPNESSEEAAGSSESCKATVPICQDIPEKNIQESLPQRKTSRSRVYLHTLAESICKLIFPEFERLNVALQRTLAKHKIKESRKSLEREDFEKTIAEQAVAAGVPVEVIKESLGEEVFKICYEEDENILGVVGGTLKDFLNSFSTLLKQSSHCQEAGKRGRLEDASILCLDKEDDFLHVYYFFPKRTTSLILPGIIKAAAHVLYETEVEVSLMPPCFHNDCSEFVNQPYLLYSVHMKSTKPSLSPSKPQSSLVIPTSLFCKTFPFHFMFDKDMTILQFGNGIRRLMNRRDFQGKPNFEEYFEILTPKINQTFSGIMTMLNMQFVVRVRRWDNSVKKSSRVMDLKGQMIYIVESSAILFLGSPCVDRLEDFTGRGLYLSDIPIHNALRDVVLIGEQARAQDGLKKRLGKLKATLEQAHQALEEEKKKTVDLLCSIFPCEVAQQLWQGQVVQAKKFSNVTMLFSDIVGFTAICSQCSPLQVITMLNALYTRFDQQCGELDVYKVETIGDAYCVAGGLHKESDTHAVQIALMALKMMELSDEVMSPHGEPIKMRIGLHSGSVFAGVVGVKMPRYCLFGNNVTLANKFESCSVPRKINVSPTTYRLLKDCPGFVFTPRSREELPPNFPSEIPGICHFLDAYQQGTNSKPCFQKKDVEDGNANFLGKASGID
# Sequence (Q02153 whole entry): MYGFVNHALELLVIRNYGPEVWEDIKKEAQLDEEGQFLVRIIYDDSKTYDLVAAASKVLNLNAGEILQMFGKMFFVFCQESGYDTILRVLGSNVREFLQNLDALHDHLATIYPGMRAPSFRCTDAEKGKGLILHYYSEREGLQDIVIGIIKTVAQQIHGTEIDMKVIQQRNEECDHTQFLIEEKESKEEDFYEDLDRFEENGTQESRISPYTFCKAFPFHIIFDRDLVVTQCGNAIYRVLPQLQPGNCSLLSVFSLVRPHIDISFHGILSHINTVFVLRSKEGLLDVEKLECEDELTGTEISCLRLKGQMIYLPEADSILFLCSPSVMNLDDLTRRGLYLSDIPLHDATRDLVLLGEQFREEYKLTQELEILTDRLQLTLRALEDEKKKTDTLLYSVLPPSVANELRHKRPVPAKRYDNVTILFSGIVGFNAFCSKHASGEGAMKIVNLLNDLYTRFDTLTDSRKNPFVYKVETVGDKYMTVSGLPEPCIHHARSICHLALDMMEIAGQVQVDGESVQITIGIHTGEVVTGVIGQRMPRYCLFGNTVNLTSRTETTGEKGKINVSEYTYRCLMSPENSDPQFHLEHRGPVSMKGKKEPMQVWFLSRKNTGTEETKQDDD
# Method Description: Molecular assay: cGMP formation by heme-free recombinant sGC (CisBio cGMP detection kit)
# Assay type: biochemical
# Setup Conditions: 300 pM heme-free sGC, 37° C., 60 min, cGMP readout; read-out: EC50 nM, Activity of Compounds in Molecular Assay
Kindly apply the following: true (1) if EC50 is less than 200 nM, false (0) in every other case.

{"Compound": "Cc1cc(C(=O)N2CCCCC2)ccc1COc1ccc(C#N)cc1-c1csc(N2CCC(C(=O)O)C(C(F)(F)F)C2)n1 (stereo not shown) [Compound 148]", "Qualitative Label": "false (0)"}
{"Compound": "Cc1cc(CN2CCS(=O)(=O)CC2)ccc1COc1ccccc1-c1csc(N2CCC(C(=O)O)CC2)n1 [Compound 272]", "Qualitative Label": "true (1)"}
{"Compound": "Cc1cc(CN2CCCC(O)C2)ccc1COc1c(C)cccc1-c1csc(N2CCC(C(=O)O)CC2)n1 (stereo not shown) [Compound 53]", "Qualitative Label": "false (0)"}
{"Compound": "Cc1ccc(OCc2ccc(C(=O)N3CCCCC3)cc2C)c(-c2csc(N3CCC(C(=O)O)C(C(F)(F)F)C3)n2)c1 (stereo not shown) [Compound 142]", "Qualitative Label": "true (1)"}
{"Compound": "Cc1ccc(OCc2ccc(CN3CCN4CCCC4C3)cc2C)c(-c2csc(N3CCC(C(=O)O)CC3)n2)c1 (stereo not shown) [Compound 350]", "Qualitative Label": "false (0)"}
{"Compound": "Cc1cc(C(=O)N2CCCCC2)ccc1COc1ccc(C#N)cc1-c1csc(N2CCC(C(=O)O)CC2)n1 [Compound 274]", "Qualitative Label": "false (0)"}
{"Compound": "Cc1cc(CN2CCS(=O)(=O)CC2)ccc1COc1ccccc1-c1csc(N2CC3CCC(C2)C3C(=O)O)n1 (stereo not shown) [Compound 120]", "Qualitative Label": "true (1)"}

====

# Tested On: Recombinant human soluble guanylate cyclase (sGC), alpha 1 / beta 1 subunits, heme-free (Homo sapiens, UniProt Q02108+Q02153)
# Construct: histidine tag (C); made in house; host or cells: Sf9 insect cells (baculovirus coinfection)
# Method Description: Molecular assay: cGMP formation by heme-free recombinant sGC (CisBio cGMP detection kit)
# Assay type: biochemical
# Setup Conditions: 300 pM heme-free sGC, 37° C., 60 min, cGMP readout; read-out: EC50 nM, Activity of Compounds in Molecular Assay
Quantity Kind: log10(EC50) (log10 of the value in nM)

{"Compound": "Cc1cc(CN2CCS(=O)(=O)CC2)ccc1COc1ccc(Cl)cc1-c1csc(N2C3CCC2CC(C(=O)O)C3)n1 (stereo not shown)", "log10(EC50)": 2.23}
{"Compound": "Cc1ccc(OCc2ccc(CN3CCOCC3)cc2C)c(-c2csc(N3CC[C@@H](C(=O)O)C3)n2)c1 (single isomer, unassigned)", "log10(EC50)": 3.30}
{"Compound": "Cc1cc(CN2CCOCC2)ccc1COc1ccccc1-c1csc(N2CCC(C(=O)O)CC2)n1", "log10(EC50)": 2.72}
{"Compound": "Cc1cc(C(=O)N2CCCCC2)ccc1COc1ccc(F)cc1-c1csc(N2CCC(C(=O)O)CC2C)n1 (stereo not shown)", "log10(EC50)": 1.70}
{"Compound": "Cc1cc(CN2CCOCC2)ccc1COc1ccc(F)cc1-c1csc(C2=CCC(C(=O)O)CC2)n1 (stereo not shown)", "log10(EC50)": 2.72}
{"Compound": "Cc1ccc(OCc2ccc(C(=O)N3CCCCC3)cc2C)c(-c2csc(N[C@@H]3CC[C@H](C(=O)O)C3)n2)c1", "log10(EC50)": 3.46}
{"Compound": "Cc1cc(CN2CCOCC2)ccc1COc1c(C)cccc1-c1csc(N2C3CCC2CC(C(=O)O)C3)n1 (stereo not shown)", "log10(EC50)": 2.54}
